# System: PBMCs
# ASSAY REMARKS: (b) LPS-induced TNFα/IL-8 release in PBMC cells
# Assay type: cell-based
# ASSAY SETUP: Homo sapiens, read-out: IC50 for Inhibition of Cytokine Release, TNFα
RECORDED METRIC: IC50 (pM)

{"columns": ["COMPOUND", "OBSERVED VALUE"],
 "data": [
  ["C#Cc1cc(Nc2nccc(Oc3ccc(NC(=O)Nc4cc(C(C)(C)C)nn4-c4ccc(C)cc4)c4ccccc34)n2)cc(C(=O)NCCOCCOCCOC)c1 [Example 2]", 700]
]}

====

# ASSAY REMARKS: Cryopreserved hepatocyte stability, Cynomolgus macaque
# Type: in vitro ADME
# ASSAY SETUP: pooled cryopreserved hepatocytes, read-out: Mean intrinsic clearance
# Protocol: Formulae Clint(tissue clearance) mL/min/kg=[0.693/t½ (min)]×[1/microsomal protein concentration mg/mL]×[mg microsomes/g liver]×[g liver/kg body weight] […] Half-life values were calculated from the relationship T1/2 (min)=−0.693/λ • where λ was the slope of the Ln concentration vs time curve. • Standard compounds testosterone, midazolam and 4-methylumbelliferone are included in the assay design. […]

{"columns": ["MOLECULAR STRING", "UNIT ABBREVIATION", "hepatocyte CLint at 0.1 μM"],
 "data": [
  ["C#Cc1cc(Nc2nccc(Oc3ccc(NC(=O)Nc4cc(C(C)(C)C)nn4-c4ccc(C)cc4)c4ccccc34)n2)cc(C(=O)NCCOCCOCCOC)c1", "µL/min/1e6 cells", 43]
]}

====

# ASSAY REMARKS: Pharmacokinetics and colon distribution in rats
# Format: in vivo, male Wistar rats
# ASSAY SETUP: male, Wistar, colon, po; rat, 5 mg/kg p.o., time cell blank (0.5 hr per method); read-out: Mean concentration, Colon
# Method: 30 male Wistar rats were divided into two groups: Group I (p.o.: 5 mg/kg) and Group II (i.v.: 0.25 mg/kg). […] From each rat, blood samples (approximately 120 μL) were collected from retro orbital plexus such that samples were obtained at pre-dose, 0.05, 0.13, 0.25, 0.5, 1, 2, 4, 8, and 24 hr (i.v.) and pre-dose, 0.5, 1, 2, 4, 6, 8, 12 and 24 hr (p.o.). […] Plasma and total colon tissue samples were quantified by LC-MS/MS method (LLOQ in plasma and total colon tissue=0.5 ng/mL).
RECORDED METRIC: concentration at 0.5 h (ng/g)

{"columns": ["MOLECULAR STRING", "RECORDED METRIC", "OBSERVED VALUE"],
 "data": [
  ["C#Cc1cc(Nc2nccc(Oc3ccc(NC(=O)Nc4cc(C(C)(C)C)nn4-c4ccc(C)cc4)c4ccccc34)n2)cc(C(=O)NCCOCCOCCOC)c1", "concentration at 0.5 h", 3.3]
]}

====

# ASSAY REMARKS: Plasma pharmacokinetics in beagle dogs
# Type: in vivo, male beagle dogs
# ASSAY SETUP: male, beagle, plasma; Dog, 0.05 mg/kg intravenous
RECORDED METRIC: AUC(0-inf) (ng·h/mL)

{"columns": ["COMPOUND", "RECORDED METRIC", "UNIT ABBREVIATION", "OBSERVED VALUE"],
 "data": [
  ["C#Cc1cc(Nc2nccc(Oc3ccc(NC(=O)Nc4cc(C(C)(C)C)nn4-c4ccc(C)cc4)c4ccccc34)n2)cc(C(=O)NCCOCCOCCOC)c1 [Example 2]", "AUC(0-inf)", "ng·h/mL", 223]
]}

====

# ASSAY REMARKS: Pharmacokinetics and colon distribution in rats
# Format: in vivo, male Wistar rats
# ASSAY SETUP: male, Wistar, plasma, po; rat, 5 mg/kg p.o., 24 hr; read-out: Mean concentration, Plasma

{"columns": ["COMPOUND", "concentration at 24 h [ng/mL]"],
 "data": [
  ["C#Cc1cc(Nc2nccc(Oc3ccc(NC(=O)Nc4cc(C(C)(C)C)nn4-c4ccc(C)cc4)c4ccccc34)n2)cc(C(=O)NCCOCCOCCOC)c1 [Example 2]", 1.8]
]}

====

# SYSTEM UNDER TEST: p38 MAPKα (Homo sapiens (Human))
# Sequence (Q16539 whole entry): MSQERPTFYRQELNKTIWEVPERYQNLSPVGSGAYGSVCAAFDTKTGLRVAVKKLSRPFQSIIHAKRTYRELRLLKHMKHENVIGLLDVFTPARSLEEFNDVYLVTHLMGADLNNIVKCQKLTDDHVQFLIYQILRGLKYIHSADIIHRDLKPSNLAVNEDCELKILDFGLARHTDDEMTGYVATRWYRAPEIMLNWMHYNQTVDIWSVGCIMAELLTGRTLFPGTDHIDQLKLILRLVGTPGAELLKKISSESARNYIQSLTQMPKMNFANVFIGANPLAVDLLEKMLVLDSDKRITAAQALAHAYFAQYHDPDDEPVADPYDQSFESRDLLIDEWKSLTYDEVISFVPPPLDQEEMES
# ASSAY REMARKS: p38 MAPKα enzyme inhibition (FRET, Method 2)
# Assay type: biochemical
pIC50: −log10 of the molar value.
Documented pIC50 across a set of molecules
RECORDED METRIC: pIC50

{"columns": ["MOLECULAR STRING", "OBSERVED VALUE"],
 "data": [
  ["C#Cc1cc(Nc2nccc(Oc3ccc(NC(=O)Nc4cc(C(C)(C)C)nn4-c4ccc(C)cc4)c4ccccc34)n2)cc(C(=O)NCCOCCOC)c1", 6.98],
  ["COCCOCCOCCNC(=O)c1cc(Nc2cc(Oc3ccc(NC(=O)Nc4cc(C(C)(C)C)nn4-c4cccc(CP(C)(C)=O)c4)c4ccccc34)ccn2)cc(OC)c1", 7.47],
  ["C#Cc1cc(Nc2nccc(Oc3ccc(NC(=O)Nc4cc(C(C)(C)C)nn4-c4ccc(OC)cc4OC)c4ccccc34)n2)cc(C(=O)NCCOCCOCCOC)c1", 6.43],
  ["C#Cc1cc(Nc2nccc(Oc3ccc(NC(=O)Nc4cc(C(C)(C)C)nn4-c4ccc(OC)cc4)c4ccccc34)n2)cc(C(=O)NCCOCCOCCOC)c1", 7.41],
  ["C#Cc1cc(Nc2nccc(Oc3ccc(NC(=O)Nc4cc(C(C)(C)C)nn4-c4ccc(OC)cc4)c4ccccc34)n2)cc(C(=O)NCCOCCOC)c1", 7.48]
]}

====

# ASSAY REMARKS: Pharmacokinetics and colon distribution in rats
# Format: in vivo, male Wistar rats
# ASSAY SETUP: male, Wistar, po; Rat, 5 mg/kg p.o., Total colon

{"columns": ["MOLECULAR STRING", "UNIT ABBREVIATION", "AUC(0-inf)"],
 "data": [
  ["C#Cc1cc(Nc2nccc(Oc3ccc(NC(=O)Nc4cc(C(C)(C)C)nn4-c4ccc(C)cc4)c4ccccc34)n2)cc(C(=O)NCCOCCOCCOC)c1", "ng·h/mL", 15800]
]}

====

# ASSAY REMARKS: Pharmacokinetics and colon distribution in mice
# Format: in vivo, male C57BL/6 mice
# ASSAY SETUP: male, C57BL/6, plasma, po; mouse, 5 mg/kg p.o., 4 hr; read-out: Mean concentration, Plasma
# Experimental: Blood samples (approximately 60 μL) were collected from retro orbital plexus such that the samples were obtained at 1, 2, 4, 6, 8, 12 and 24 hr. […] All samples were processed for analysis by protein precipitation using acetonitrile and analyzed with developed LC-MS/MS method (LLOQ: 2.02 ng/mL in plasma and 1.01 ng/mL in colon tissue). Pharmacokinetic parameters were calculated using the non-compartmental analysis tool of Phoenix WinNonlin® software (version 6.3).
RECORDED METRIC: concentration at 4 h (ng/mL)

{"columns": ["MOLECULAR STRING", "RECORDED METRIC", "OBSERVED VALUE"],
 "data": [
  ["C#Cc1cc(Nc2nccc(Oc3ccc(NC(=O)Nc4cc(C(C)(C)C)nn4-c4ccc(C)cc4)c4ccccc34)n2)cc(C(=O)NCCOCCOCCOC)c1", "concentration at 4 h", 5.1]
]}

====

# ASSAY REMARKS: Pharmacokinetics and colon distribution in mice
# Assay type: in vivo, male C57BL/6 mice
# ASSAY SETUP: male, C57BL/6, colon, po; mouse, 5 mg/kg p.o., 2 hr; read-out: Mean concentration, Colon

{"columns": ["MOLECULAR STRING", "UNIT ABBREVIATION", "concentration at 2 h"],
 "data": [
  ["C#Cc1cc(Nc2nccc(Oc3ccc(NC(=O)Nc4cc(C(C)(C)C)nn4-c4ccc(C)cc4)c4ccccc34)n2)cc(C(=O)NCCOCCOCCOC)c1", "ng/g", 2810]
]}

====

# SYSTEM UNDER TEST: UniProtKB P11712
# Sequence (P11712 whole entry): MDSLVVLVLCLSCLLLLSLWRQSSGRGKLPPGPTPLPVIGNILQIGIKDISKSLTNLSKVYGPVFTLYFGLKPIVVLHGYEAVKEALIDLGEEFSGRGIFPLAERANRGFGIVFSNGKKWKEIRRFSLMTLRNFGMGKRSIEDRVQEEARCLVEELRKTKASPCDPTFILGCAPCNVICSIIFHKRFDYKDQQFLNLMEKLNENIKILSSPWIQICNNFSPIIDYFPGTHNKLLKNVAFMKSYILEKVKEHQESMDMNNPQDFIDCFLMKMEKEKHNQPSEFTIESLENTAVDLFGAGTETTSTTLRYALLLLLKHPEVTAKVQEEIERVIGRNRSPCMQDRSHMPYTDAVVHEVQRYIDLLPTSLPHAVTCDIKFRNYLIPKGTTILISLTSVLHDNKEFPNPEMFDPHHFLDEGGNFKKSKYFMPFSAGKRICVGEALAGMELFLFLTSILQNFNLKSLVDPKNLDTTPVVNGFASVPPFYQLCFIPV
# ASSAY REMARKS: CYP450 time-dependent inhibition, CYP2C9
# Format: in vitro ADME
# ASSAY SETUP: human, pooled human liver microsomes, pH 7.4; CYP2C9, 0 min preincubation, 15 μM; read-out: 15 μM % Inh

{"columns": ["COMPOUND", "SYSTEM UNDER TEST", "inhibition at 0 min, 15 µM [%]"],
 "data": [
  ["C#Cc1cc(Nc2nccc(Oc3ccc(NC(=O)Nc4cc(C(C)(C)C)nn4-c4ccc(C)cc4)c4ccccc34)n2)cc(C(=O)NCCOCCOCCOC)c1 [Example 2]", "UniProtKB P11712", 35]
]}

====

# ASSAY REMARKS: Cryopreserved hepatocyte stability, human
# Type: in vitro ADME
# ASSAY SETUP: pooled cryopreserved hepatocytes, read-out: Mean intrinsic clearance
RECORDED METRIC: hepatocyte CLint at 0.1 μM

{"columns": ["MOLECULAR STRING", "OBSERVED VALUE"],
 "data": [
  ["C#Cc1cc(Nc2nccc(Oc3ccc(NC(=O)Nc4cc(C(C)(C)C)nn4-c4ccc(C)cc4)c4ccccc34)n2)cc(C(=O)NCCOCCOCCOC)c1", "37 µL/min/1e6 cells"]
]}
